- target_under_test: Phosphoethanolamine/phosphocholine phosphatase (Homo sapiens) (UniProt Q8TCT1)
- Sequence (Q8TCT1 whole entry, looked up): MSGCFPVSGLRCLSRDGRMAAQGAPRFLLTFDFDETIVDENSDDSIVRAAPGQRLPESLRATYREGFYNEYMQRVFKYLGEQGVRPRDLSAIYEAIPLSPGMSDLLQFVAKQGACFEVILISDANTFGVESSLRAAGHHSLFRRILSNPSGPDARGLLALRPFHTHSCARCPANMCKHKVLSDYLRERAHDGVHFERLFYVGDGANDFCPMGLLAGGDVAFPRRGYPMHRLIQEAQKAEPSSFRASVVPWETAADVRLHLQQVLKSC
- test_protocol: PubChem AID 1565
- condition_context: recombinant PHOSPHO1, absorbance phosphatase assay; at 13.3 µM; stronger effect = higher value
Hit rate of the full screen: of about 290,000 compounds, about 3,200 (1.1%) were called active. This excerpt belongs to a sample that is enriched for actives.
quantity_kind: inhibition (%)

1. Cc1ccc(-c2nc3ccccc3c(=O)n2-c2ccc(Br)cn2)cc1    68.6
2. Cc1ccc(-n2c(-c3ccc([N+](=O)[O-])cc3)nc3ccccc3c2=O)cc1    -3.5
3. Cc1cccc(NC(=O)N2CC3CC(C2)c2cccc(=O)n2C3)c1 (configuration not stated)    41.8
4. COc1ccc(Br)cc1CNCCc1cccc(Cl)c1    13.9
5. C[N+]12CN3CN(CN(C3)C1)C2    -34.4
6. O=[N+]([O-])c1ccc(C2C3C(c4ccccc4)=NC4(CCCCC4)N32)cc1 (configuration not stated)    64.6
7. O=C(O)c1ccccc1NC(=O)C1C2CCC(O2)C1C(=O)O (configuration not stated)    28.7
